Every entry's value here was drawn from ChEMBL document CHEMBL5126609.

Assay: Lipophilicity, log D of the compound at pH 7.4
Conditions: buffer
TEST READOUT: logD
Number only, please.

stdin: Input `Cc1nc(C)n(CC(=O)N2CCN(c3sc(C(F)(F)F)nc3-c3nc4ccc(C5CCOCC5)cc4[nH]3)C[C@H]2C)n1` , output reported logD.
stdout: 3.7

stdin: Please look at this compound and report its logD: `C[C@@H]1CN(c2sc(C(F)(F)F)nc2-c2nc3ccccc3[nH]2)CCN1C(=O)Cn1cnc2cccnc21`
stdout: 3.9

stdin: For `Cc1nc(C)n(CC(=O)N2CCN(c3sc(C(F)(F)F)nc3-c3nc4ccccc4[nH]3)C[C@H]2C)n1` , write its logD.
stdout: 3.3

stdin: // fetch logD given entry `C[C@@H]1CN(c2sc(C(F)(F)F)nc2-c2nc3ccccc3[nH]2)CCN1C(=O)Cn1cccn1`
stdout: 3.4

stdin: Indicate the recorded logD value for this compound: `Cc1nn(CC(=O)N2CCN(c3sc(C(F)(F)F)nc3-c3nc4ccccc4[nH]3)C[C@H]2C)cc1CN(C)C`
stdout: 2.4

stdin: Specify logD for `C[C@@H]1CN(c2sc(C(F)(F)F)nc2-c2nc3cc(OCCO)ccc3[nH]2)CCN1C(=O)Cn1cnc2cccnc21` and stop.
stdout: 2.4

stdin: Identify logD associated with the compound `C[C@@H]1CN(c2sc(C(F)(F)F)nc2-c2nc3ccccc3[nH]2)CCN1C(=O)Cn1cnc2c1CCN(C)C2`
stdout: 3

stdin: Give logD for the following compound: `Cc1nc(C)n(CC(=O)N2CCN(c3sc(C(F)(F)F)nc3-c3nc4c(F)cccc4[nH]3)C[C@H]2C)n1`
stdout: 3.6

stdin: Specify logD for `Cc1nc(C)n(CC(=O)N2CCN(c3sc(C(F)(F)F)nc3-c3nc4ccc(N5CCOCC5)cc4[nH]3)C[C@H]2C)n1` and stop.
stdout: 2

stdin: Determine its reported logD: `Cc1nc(C)n(CC(=O)N2CCN(c3sc(C(F)(F)F)nc3-c3nc4ccc(C5CCN(C)CC5)cc4[nH]3)C[C@H]2C)n1`
stdout: 3.4

----------
Assay: in vivo
Conditions: Balb/c, mouse, po, 10 mg/kg
TEST READOUT: Cmax (ng/mL)
Numeric only. Scale: ng/mL

stdin: Write down Cmax measured for item `Cc1nc(C)n(CC(=O)N2CCN(c3sc(C(F)(F)F)nc3-c3nc4ccc(C5CCN(C)CC5)cc4[nH]3)C[C@H]2C)n1`
stdout: 30.5

stdin: Output measured Cmax for this item: `Cc1nc(C)n(CC(=O)N2CCN(c3sc(C(F)(F)F)nc3-c3nc4ccc(N5CCOCC5)cc4[nH]3)C[C@H]2C)n1`
stdout: 4320

stdin: Annotate the compound `Cc1nn(CC(=O)N2CCN(c3sc(C(F)(F)F)nc3-c3nc4ccccc4[nH]3)C[C@H]2C)cc1CN(C)C` with its measured Cmax.
stdout: 258

----------
Biological target: hERG (KCNH2) (Homo sapiens, UniProt Q12809)
Sequence (Q12809 whole entry): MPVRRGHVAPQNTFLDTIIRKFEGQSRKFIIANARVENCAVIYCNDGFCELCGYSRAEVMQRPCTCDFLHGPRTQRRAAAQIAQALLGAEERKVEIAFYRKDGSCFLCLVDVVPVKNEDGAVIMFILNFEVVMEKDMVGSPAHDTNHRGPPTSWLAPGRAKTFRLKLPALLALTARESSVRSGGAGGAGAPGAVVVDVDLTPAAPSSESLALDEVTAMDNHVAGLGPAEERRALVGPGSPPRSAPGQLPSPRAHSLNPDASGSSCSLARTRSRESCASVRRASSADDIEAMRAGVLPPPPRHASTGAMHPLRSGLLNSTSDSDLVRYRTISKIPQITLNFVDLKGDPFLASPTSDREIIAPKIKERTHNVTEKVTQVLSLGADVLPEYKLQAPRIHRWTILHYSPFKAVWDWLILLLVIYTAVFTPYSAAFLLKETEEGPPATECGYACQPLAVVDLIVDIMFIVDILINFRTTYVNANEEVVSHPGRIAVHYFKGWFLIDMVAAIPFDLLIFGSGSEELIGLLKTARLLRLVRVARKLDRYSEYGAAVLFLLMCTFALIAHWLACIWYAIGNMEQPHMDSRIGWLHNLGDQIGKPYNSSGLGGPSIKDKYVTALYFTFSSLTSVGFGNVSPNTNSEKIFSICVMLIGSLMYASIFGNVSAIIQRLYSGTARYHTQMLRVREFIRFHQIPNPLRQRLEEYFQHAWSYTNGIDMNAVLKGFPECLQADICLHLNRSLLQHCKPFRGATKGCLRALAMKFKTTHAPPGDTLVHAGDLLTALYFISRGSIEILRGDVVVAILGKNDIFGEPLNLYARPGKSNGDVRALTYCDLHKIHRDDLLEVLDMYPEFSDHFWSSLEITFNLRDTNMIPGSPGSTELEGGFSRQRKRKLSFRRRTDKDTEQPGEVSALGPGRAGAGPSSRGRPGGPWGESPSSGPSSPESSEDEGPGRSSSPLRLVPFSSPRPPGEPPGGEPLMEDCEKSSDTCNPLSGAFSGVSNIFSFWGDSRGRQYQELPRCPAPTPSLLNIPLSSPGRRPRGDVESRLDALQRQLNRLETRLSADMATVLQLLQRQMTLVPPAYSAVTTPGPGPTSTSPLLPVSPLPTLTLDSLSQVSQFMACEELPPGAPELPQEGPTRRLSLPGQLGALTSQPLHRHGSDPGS
Experiment: Inhibition of hERG expressed in CHO cells at 3 uM at -80 mV holding potential assessed as current block incubated for 3 mins by Qpatch clamp method relative to control
Record form. Attribute: inhibition at 0.05 h, 3 µM. Fill in for each entry.
The figure you give is taken to be in %; do not add the unit.

stdin: Look up and report measured inhibition at 0.05 h, 3 µM (hERG (KCNH2) (Homo sapiens, UniProt Q12809)) for the following compound: `C[C@@H]1CN(c2sc(C(F)(F)F)nc2-c2nc3ccccc3[nH]2)CCN1C(=O)Cn1cnc2cccnc21`
stdout: 70

stdin: Give the observed inhibition at 0.05 h, 3 µM of `C[C@@H]1CN(c2sc(C(F)(F)F)nc2-c2nc3ccccc3[nH]2)CCN1C(=O)Cn1cccn1` for hERG (KCNH2) (Homo sapiens, UniProt Q12809).
stdout: 54

stdin: Write down measured inhibition at 0.05 h, 3 µM (hERG (KCNH2) (Homo sapiens, UniProt Q12809)) for this compound. `C[C@@H]1CN(c2sc(C(F)(F)F)nc2-c2nc3ccccc3[nH]2)CCN1C(=O)Cn1ccc(C(=O)O)n1`
stdout: -2
